System: PANC-1
Protocol text: Cytotoxicity against human PANC1 cells after 48 hrs by SRB assay
Type: functional
Recorded conditions: PANC-1, 48 h, read-out: LC50 (the source's name)
Please go through the items and note down their CC50.
Give bare numbers, in µM.

C/C=C1\NC(=O)[C@H](Cc2ccccc2)NC(=O)[C@@H](C(C)C)NC(=O)[C@@H]([C@H](C)CC)NC(=O)[C@H](NC(=O)[C@H](NC(=O)[C@H](CCCN)NC(=O)[C@H]2CCCN2C(=O)[C@H](NC(=O)[C@@H](NC(=O)[C@@H](NC(=O)[C@@H](C(C)C)N(CCCCCC)CCCCCC)[C@@H](C)O)C(C)C)C(C)C)[C@H](C)CC)[C@H](C)OC(=O)[C@H](C(C)C)NC1=O : 2.27
C/C=C1\NC(=O)[C@H](Cc2ccccc2)NC(=O)[C@@H](C(C)C)NC(=O)[C@@H]([C@H](C)CC)NC(=O)[C@H](NC(=O)[C@H](NC(=O)[C@H](CCCN)NC(=O)[C@H]2CCCN2C(=O)[C@H](NC(=O)[C@H](CCCN)NC(=O)[C@@H](NC(=O)[C@H](NC(=O)CCCC(C)C)C(C)C)[C@@H](C)O)C(C)C)[C@H](C)CC)[C@H](C)OC(=O)[C@H](C(C)C)NC1=O : 2.29
C/C=C1\NC(=O)[C@H](Cc2ccccc2)NC(=O)[C@@H](C(C)C)NC(=O)[C@@H]([C@H](C)CC)NC(=O)[C@H](NC(=O)[C@H](NC(=O)[C@H](CCCN)NC(=O)[C@H]2CCCN2C(=O)[C@H](NC(=O)[C@@H](NC(=O)[C@@H](NC(=O)[C@H](NC(=O)c2ccc(C(F)(F)F)cc2)C(C)C)[C@@H](C)O)C(C)C)C(C)C)[C@H](C)CC)[C@H](C)OC(=O)[C@H](C(C)C)NC1=O : 2.43
C/C=C1\NC(=O)[C@H](Cc2ccccc2)NC(=O)[C@@H](C(C)C)NC(=O)[C@@H]([C@H](C)CC)NC(=O)[C@H](NC(=O)[C@H](NC(=O)[C@H](CCCN)NC(=O)[C@H]2CCCN2C(=O)[C@H](NC(=O)[C@@H](NC(=O)[C@@H](NC(=O)[C@H](NC(=O)CCCC(C)C)C(C)C)[C@@H](C)O)C(C)C)C(C)C)[C@H](C)CC)[C@H](C)OC(=O)[C@H](C(C)C)NC1=O [KAHALALIDE F] : 5.07

Task item: Using the record for C/C=C1\NC(=O)[C@H](Cc2ccccc2)NC(=O)[C@@H](C(C)C)NC(=O)[C@@H]([C@H](C)CC)NC(=O)[C@H](NC(=O)[C@H](NC(=O)[C@H](CCCN)NC(=O)[C@H]2CCCN2C(=O)[C@H](NC(=O)[C@@H](NC(=O)[C@@H](NC(=O)[C@H](NC(=O)CC[C@@H](C)CC)C(C)C)[C@@H](C)OC(=O)C(F)(F)F)C(C)C)C(C)C)[C@H](C)CC)[C@H](C)OC(=O)[C@H](C(C)C)NC1=O , state its measured CC50.
Reply: 1.66

Provenance of the data: ChEMBL document CHEMBL1156597
